- tested-on: human GLP-1 receptor (human, UniProt P43220 24-463)
- test: cell-based or functional assay
Positions of bridges follow the written chain, without caps; N, C: chain ends. Non-standard residues stand in square brackets, D forms with d. No end group written: not given here. *: point of attachment. Acetyl(2-(4-imidazolyl)) = O=C(Cc1c[nH]cn1)*; Aib = CC(C)(N)C(=O)O
Entries and their In vitro activity (%) compared with native peptide: vs GLP-1 values follow.
Numeric answer only, unit % assumed.

Solved cases (5 shown):
[[record]]
binder = "H[Aib]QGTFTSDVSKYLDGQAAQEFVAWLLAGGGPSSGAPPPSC (not fully specified) [triple agonist of SEQ ID NO: 10]"
reading_unit = "%"
experimental_value = 46

[[record]]
binder = "Y[Aib]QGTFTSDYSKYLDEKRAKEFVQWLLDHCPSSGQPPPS (bridge 16-20; not fully specified) [triple agonist of SEQ ID NO: 96]"
reading_unit = "%"
experimental_value = 34.4

[[record]]
binder = "{Acetyl(2-(4-imidazolyl))}-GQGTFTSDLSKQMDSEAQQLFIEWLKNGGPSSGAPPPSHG (not fully specified; also: ring from underlined residues, positions not shown) [triple agonist of SEQ ID NO: 16]"
reading_unit = "%"
experimental_value = 2.1

[[record]]
binder = "{Acetyl(2-(4-imidazolyl))}-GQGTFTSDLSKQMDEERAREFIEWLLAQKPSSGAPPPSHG (not fully specified; also: ring from underlined residues, positions not shown) [triple agonist of SEQ ID NO: 17]"
reading_unit = "%"
experimental_value = 0.2

[[record]]
binder = "H[Aib]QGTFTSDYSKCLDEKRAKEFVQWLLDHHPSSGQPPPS (bridge 16-20; not fully specified) [triple agonist of SEQ ID NO: 65]"
reading_unit = "%"
experimental_value = 95.4


Problem: Record request: In vitro activity (%) compared with native peptide: vs GLP-1 value, item Y[Aib]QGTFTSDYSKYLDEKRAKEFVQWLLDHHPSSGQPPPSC (bridge 16-20; not fully specified) [triple agonist of SEQ ID NO: 42]
Result: 33.9

Problem: Same question for H[Aib]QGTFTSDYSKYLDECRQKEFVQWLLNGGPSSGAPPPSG (bridge 16-20) [triple agonist of SEQ ID NO: 37] please.
Result: 236

Problem: {Acetyl(2-(4-imidazolyl))}-[Aib]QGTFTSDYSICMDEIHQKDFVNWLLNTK (bridge 15-19; not fully specified) [triple agonist of SEQ ID NO: 49] , same question.
Result: 29.8

Problem: Proceed to H[Aib]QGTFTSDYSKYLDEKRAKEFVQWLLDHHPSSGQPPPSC (bridge 16-20; not fully specified) [triple agonist of SEQ ID NO: 50]
Result: 67.4

Source of measurements: patent US20230372448A1
